# TARGET_DESC: UniProt:O43283
So basically, if IC50 comes in under 2 µM it's t, and if it's 2 µM or more it's f.

These solved cases illustrate the format of a correct answer.
                                   compound  cat
0  Nc1nc2ccc(-c3csc(C(=O)NC4CCCc5cc(F)ccc54)c3)cn2n1 (stereo not shown) [Compound 318]    t
1  Nc1nc2ccc(-c3csc(C(=O)NCc4c(F)cccc4F)c3)cn2n1 [Compound 221]    f
2  COC[C@H](NC(=O)c1cc(-c2cc(C(=O)NC(C)C)c3nc(N)nn3c2)cs1)c1ccccc1 (stereo in doubt) [Compound 91]    t

Query string: Is IC50 of CC(C)NC(=O)c1cc(-c2csc(C(=O)N[C@@H](C)c3ccc(C(F)(F)F)cc3)c2)cn2nc(N)nc12 [Compound 83] strictly below 2 µM?
Result string: f

Query string: Is IC50 of C[C@@H](CO)NC(=O)c1cc(-c2csc(C(=O)NCc3ccccc3)c2)cn2nc(N)nc12 [Compound 21] strictly below 2 µM?
Result string: t

Query string: Is IC50 of CC(NC(=O)c1cc(-c2ccc3nc(N)nn3c2)cs1)c1cn[nH]c1 (stereo not shown) [Compound 333] strictly below 2 µM?
Result string: f

Query string: Is IC50 of CC[C@H](NC(=O)c1cc(-c2cc(C(=O)NC3CCC3)c3nc(N)nn3c2)cs1)c1ccc(F)cc1 [Compound 137] strictly below 2 µM?
Result string: t

Query string: Is IC50 of CC[C@@H](C)NC(=O)c1cc(-c2csc(C(=O)N[C@H](CC)c3ccc(F)cc3)c2)cn2nc(N)nc12 [Compound 136] strictly below 2 µM?
Result string: f

Query string: Is IC50 of Nc1nc2ccc(-c3csc(C(=O)NC4CCC4)c3)cn2n1 [Compound 171] strictly below 2 µM?
Result string: f

----------
# TARGET_DESC: UniProt Q12852
# Sequence (Q12852 1-520): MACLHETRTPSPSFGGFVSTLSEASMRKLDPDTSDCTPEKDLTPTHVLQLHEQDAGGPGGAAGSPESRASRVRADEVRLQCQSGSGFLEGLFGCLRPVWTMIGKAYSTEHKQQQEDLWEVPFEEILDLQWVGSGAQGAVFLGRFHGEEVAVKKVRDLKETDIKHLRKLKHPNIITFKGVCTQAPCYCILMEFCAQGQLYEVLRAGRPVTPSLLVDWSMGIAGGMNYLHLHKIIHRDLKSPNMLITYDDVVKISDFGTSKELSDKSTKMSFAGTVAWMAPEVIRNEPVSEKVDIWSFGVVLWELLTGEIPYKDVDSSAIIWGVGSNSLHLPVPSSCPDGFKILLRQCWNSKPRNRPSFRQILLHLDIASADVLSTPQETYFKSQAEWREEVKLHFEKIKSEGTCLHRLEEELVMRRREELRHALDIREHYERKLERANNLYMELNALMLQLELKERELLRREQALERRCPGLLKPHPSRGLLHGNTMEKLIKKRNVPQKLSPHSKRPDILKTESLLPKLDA
pIC50: −log10 of the molar value.
We use 6 as the dividing line for pIC50: on or above the line is yes (1), below is no (0).

These solved cases illustrate the format of a correct answer.
>>> df
                                   compound      cat
0  Nc1nc2ccc(-c3csc(C(=O)NCc4ccco4)c3)cn2n1  yes (1)
1  COc1cc(CNC(=O)c2cc(-c3ccc4nc(N)nn4c3)cs2)cc(OC)c1  yes (1)
2  CN1CCO[C@H](CNC(=O)c2cc(-c3ccc4nc(N)nn4c3)cs2)C1   no (0)
3  C[C@H](NC(=O)c1cc(-c2cc(C(=O)NC3CNC(=O)C3)c3nc(N)nn3c2)cs1)c1ccc(F)cc1 (mixture of isomers)  yes (1)

Kindly consider the entry below.
Query string: Hello, I need to know if COc1cccc(CNC(=O)c2cc(-c3cc(C)c4nc(N)nn4c3)cs2)c1 has measured pIC50 not below 6. Thanks!
Result string: yes (1)

----------
# TARGET_DESC: LZK (Homo sapiens (Human), UniProt O43283)
# Sequence (O43283 168-409): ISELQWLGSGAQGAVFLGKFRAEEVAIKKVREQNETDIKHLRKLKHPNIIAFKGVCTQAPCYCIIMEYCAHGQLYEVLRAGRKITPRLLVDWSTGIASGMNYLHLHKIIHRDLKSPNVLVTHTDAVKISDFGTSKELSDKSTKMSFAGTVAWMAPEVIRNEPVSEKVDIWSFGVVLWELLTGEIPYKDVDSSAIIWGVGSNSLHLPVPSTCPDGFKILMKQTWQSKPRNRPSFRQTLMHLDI
# ASSAY_SUMMARY: LZK biochemical assay (TR-FRET, MKK7 phosphorylation)
pIC50: −log10 of the molar value.
We use 7 as the dividing line for pIC50: on or above the line is yes, below is no.

These solved cases illustrate the format of a correct answer.
>>> df
                                   molecule  cat
0  Nc1nc2c(C(=O)NC3CCC3)cc(-c3csc(C(=O)NCc4ccc(F)cc4)c3)cn2n1 [Compound 58]   no
1  COC(=O)c1cccc(CNC(=O)c2cc(-c3ccc4nc(N)nn4c3)cs2)c1 [Compound 280]   no
2  C[C@H](NC(=O)c1cc(-c2ccc3nc(N)nn3c2)cs1)c1ccc(C(F)(F)F)cc1 [Compound 353]   no
3  COC[C@H](C)NC(=O)c1cc(-c2csc(C(=O)N[C@@H](C)c3ccccc3)c2)cn2nc(N)nc12 [Compound 70]   no

Kindly consider the entry below.
Query string: Hello, I need to know if CC[C@H](NC(=O)c1cc(-c2cc(C(=O)NC(C)CF)c3nc(N)nn3c2)cs1)c1ccc(F)cc1 (stereo partly shown) [Compound 144-1] has measured pIC50 not below 7. Thanks!
Result string: yes
